- subject.of.test: Bromodomain-containing protein 4 (Homo sapiens, UniProt O60885)
- test.protocol: Binding affinity to BRD4 BD1 (unknown origin) expressed in Escherichia coli BL21 (DE3) at 1:1 protein:compound ratio by MST assay
pKd: −log10 of the molar value.
endpoint.name: pKd

P. Cc1nn(CC2CCCCC2)c(C)c1-c1cncc(-c2ccnc3nc[nH]c23)c1
Q. Cc1nn(C)c(C)c1-c1cncc(-c2ccnc3nc[nH]c23)c1
Query :: Between P and Q , whose measured pKd reads higher? Your choice should be expressed through its label.
Result :: P

###

- subject.of.test: Bromodomain-containing protein 4 (Homo sapiens)
- test.protocol: Binding affinity to BRD4 BD2 (unknown origin) expressed in Escherichia coli BL21 (DE3) at 1:1 protein:compound ratio by MST assay
endpoint.name: Kd (µM)

P. Cc1nn(CC2CCCCC2)c(C)c1-c1cncc(-c2ccnc3nc[nH]c23)c1
Q. Cc1nn(C)c(C)c1-c1cncc(-c2ccnc3nc[nH]c23)c1
Query :: Please indicate which has the smaller reported Kd: P , or Q . Your choice should be expressed through its label.
Result :: P
